Below, each entry is listed alongside its reported kon.
Biological target: T1, serum purified human Complement Factor D (human, UniProt P00746 26-253)
T1 construct: Serum purified protein flowed over the captured antibodies; also called CFD; human CFD
T1 sequence (P00746 26-253): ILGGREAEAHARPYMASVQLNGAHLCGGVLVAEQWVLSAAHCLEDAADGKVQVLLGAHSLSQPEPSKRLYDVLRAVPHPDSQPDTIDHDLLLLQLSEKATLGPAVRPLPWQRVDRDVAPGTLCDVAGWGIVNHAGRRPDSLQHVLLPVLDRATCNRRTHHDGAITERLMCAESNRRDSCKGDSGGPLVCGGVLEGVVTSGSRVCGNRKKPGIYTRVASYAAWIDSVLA
Assay: SPR Biacore, antibody on protein A chip, single cycle kinetics, 37 C;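 also: antibodies captured on the protein A surface to roughly 70 RU in HBS-EP+ buffer, with rate and affinity constants fitted using BIAevaluation software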
Answer in M⁻¹ s⁻¹, number only, no unit symbol.

binder: 31S54V59D / 101V (antibody, V domains shown, KCD119 TAF variant; full antibody captured on protein A) VH: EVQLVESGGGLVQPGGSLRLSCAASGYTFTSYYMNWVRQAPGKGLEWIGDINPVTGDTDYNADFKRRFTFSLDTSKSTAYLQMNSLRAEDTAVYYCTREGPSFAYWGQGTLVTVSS VL: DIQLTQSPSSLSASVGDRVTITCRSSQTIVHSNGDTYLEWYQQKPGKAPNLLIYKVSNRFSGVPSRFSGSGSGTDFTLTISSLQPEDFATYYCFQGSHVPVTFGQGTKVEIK
kon, M⁻¹ s⁻¹: 9.08e+06

// kon lookup, key: 28Q31S54V59D / 101V (antibody, V domains shown, KCD119 TAF variant; full antibody captured on protein A) VH: EVQLVESGGGLVQPGGSLRLSCAASGYQFTSYYMNWVRQAPGKGLEWIGDINPVTGDTDYNADFKRRFTFSLDTSKSTAYLQMNSLRAEDTAVYYCTREGPSFAYWGQGTLVTVSS VL: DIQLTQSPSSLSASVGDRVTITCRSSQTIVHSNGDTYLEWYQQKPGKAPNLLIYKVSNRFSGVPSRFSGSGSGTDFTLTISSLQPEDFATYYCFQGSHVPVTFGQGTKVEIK
1.35e+07

// kon lookup, key: 34I54I59D / 54R101V (antibody, V domains shown, KCD119 TAF variant) VH: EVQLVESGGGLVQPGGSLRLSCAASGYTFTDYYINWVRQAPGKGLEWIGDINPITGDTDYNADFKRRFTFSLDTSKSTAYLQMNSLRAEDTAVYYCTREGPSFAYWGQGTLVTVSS VL: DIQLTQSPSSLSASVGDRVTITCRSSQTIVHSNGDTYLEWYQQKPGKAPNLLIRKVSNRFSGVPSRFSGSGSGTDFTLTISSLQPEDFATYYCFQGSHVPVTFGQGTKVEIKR
3.27e+07
